B1: Calcium-binding protein 2, residues 155 to 219; numbered along this chain, Q9NPB3 (parent)
chain: RELRDAFREFDTNGDGRISVGELRAALKALLGERLSQREVDEILQDVDLNGDGLVDFEEFVRMMS

Variants of: B1
Experiment: abundance fitness (aPCA) (normalised: wild type 0, dead -1); higher = more abundant; growth selection in yeast, the domain comes from the species named
Settings: Homo sapiens
Entries are grouped by abundance fitness into these classes: low-valued: < -0.2; mid-valued: ≥ -0.2 and < 0.006; high-valued: ≥ 0.006

RELRDAFREFDTNGDGRISVGELRAALKALQGERLSQREVDEILQDVDLNGDGLVDFEEFVRMMS : high-valued

--- query ---
Into which category would you place RELRDAFREFDTNGDGRISVGELRAALKHLLGERLSQREVDEILQDVDLNGDGLVDFEEFVRMMS ?
mid-valued

Taken from the Human Domainome abundance scans (Beltran et al. 2025).
